# experimental_target: 5-hydroxytryptamine receptor 1A (Homo sapiens) (UniProt P08908)
# Sequence (P08908 whole entry): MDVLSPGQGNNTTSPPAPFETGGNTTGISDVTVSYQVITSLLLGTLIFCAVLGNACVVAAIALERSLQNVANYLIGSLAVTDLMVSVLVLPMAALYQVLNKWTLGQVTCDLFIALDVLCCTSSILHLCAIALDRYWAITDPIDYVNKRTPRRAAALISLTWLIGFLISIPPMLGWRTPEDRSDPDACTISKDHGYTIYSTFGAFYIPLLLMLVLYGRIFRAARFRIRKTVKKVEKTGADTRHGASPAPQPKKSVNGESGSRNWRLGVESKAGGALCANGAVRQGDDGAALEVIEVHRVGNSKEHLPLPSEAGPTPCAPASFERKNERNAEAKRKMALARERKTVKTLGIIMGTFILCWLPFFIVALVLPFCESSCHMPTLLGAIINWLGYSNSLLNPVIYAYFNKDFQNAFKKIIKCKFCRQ
# experiment_description: Antagonistic potency as binding affinity of 5-HT stimulated [35S]GTP gamma S to human 5-HT1A receptor
# Type: functional
reported_endpoint: Kb

CCN(CC)C(=O)[C@@]1(c2ccccc2)C[C@H]1CNCC(O)COc1cccc2[nH]ccc12 (some centres undefined)	14.8 nM
OC(CNCCCCCCNCCC(Oc1ccc(C(F)(F)F)cc1)c1ccccc1)COc1cccc2ccccc12 (centres undefined)	1730 nM
OC(CNCCC(Oc1ccc(C(F)(F)F)cc1)c1ccccc1)COc1cccc2[nH]ccc12 (centres undefined)	2.2 nM

Now for another entry.
Prompt: Identify Kb associated with the compound OC(CNCCCCCCN1CC[C@H](c2ccc(F)cc2)[C@@H](COc2ccc3c(c2)OCO3)C1)COc1cccc2ccccc12 (some centres undefined)
Completion: 188 nM
